# test.target: Nr2e3 (Homo sapiens, UniProt Q9Y5X4)
# Construct: Nr2e3 protein (aa 90-410) was expressed; His8 (N, cleaved yes); MBP (N, cleaved yes)
# Sequence (Q9Y5X4 90-410): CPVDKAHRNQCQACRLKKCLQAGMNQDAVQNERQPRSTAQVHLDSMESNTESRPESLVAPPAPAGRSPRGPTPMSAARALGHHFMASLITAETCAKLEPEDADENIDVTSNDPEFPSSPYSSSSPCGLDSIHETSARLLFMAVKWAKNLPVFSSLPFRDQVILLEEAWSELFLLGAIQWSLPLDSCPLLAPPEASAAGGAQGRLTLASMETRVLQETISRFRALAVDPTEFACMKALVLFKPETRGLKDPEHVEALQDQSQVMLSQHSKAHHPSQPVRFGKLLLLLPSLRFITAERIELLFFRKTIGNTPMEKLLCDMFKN
# protocol.details: Isothermal titration calorimetry (ITC) of PR3 binding to Nr2e3
# experimental.parameters: one site model, estimated
pKd: −log10 of the molar value.

>  <record.smiles>
COc1cc2nc(CN3CC=C(c4ccccc4)CC3)nc(O)c2cc1OC

>  <pKd>
~4.17

$$$$
